- assayed-system: human V1a receptor (Homo sapiens, UniProt P37288)
- Construct: expressed in transfected cells; host or cells: HEK293 cells, transiently transfected; membranes
- Sequence (P37288 whole entry): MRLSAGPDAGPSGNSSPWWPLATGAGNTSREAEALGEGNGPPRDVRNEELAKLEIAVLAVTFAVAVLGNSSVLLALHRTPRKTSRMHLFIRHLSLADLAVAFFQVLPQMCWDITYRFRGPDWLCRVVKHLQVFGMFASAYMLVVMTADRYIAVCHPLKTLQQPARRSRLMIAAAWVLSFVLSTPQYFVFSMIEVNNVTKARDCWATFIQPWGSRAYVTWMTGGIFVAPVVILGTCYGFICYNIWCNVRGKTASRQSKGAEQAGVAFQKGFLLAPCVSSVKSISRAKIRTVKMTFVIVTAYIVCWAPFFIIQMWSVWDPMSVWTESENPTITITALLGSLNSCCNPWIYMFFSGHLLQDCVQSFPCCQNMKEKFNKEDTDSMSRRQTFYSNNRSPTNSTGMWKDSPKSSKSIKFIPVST
- measurement-notes: human V1a receptor binding studies (3H-Vasopressin SPA, membranes of transfected HEK293 cells)
- test-conditions: 3H-Vasopressin displacement, HEK293 cell membranes, SPA beads, 1 h at room temperature, Ki by Cheng-Prussoff from IC50, read-out: pKi (hV1a) (converted)
Counter-ions that a name gives are not always drawn.
Checkbox rule: Ki lower than 20 nM = 1.0; Ki not lower than 20 nM = 0.0.

compound: Fc1cccnc1C1=CCC(c2nnc3n2-c2ccc(Cl)cc2CNC3)CC1 (single isomer, unassigned; (+)) [Example 32]
assigned-label: 0.0

compound: CN1Cc2cc(Cl)ccc2-n2c(nnc2C2CC=C(c3cc(F)ccn3)CC2)C1 (racemic)
assigned-label: 1.0

compound: FC(F)(F)Oc1cccc(C2=CCC(c3nnc4n3-c3ccc(Cl)cc3CNC4)CC2)c1 (racemic) [Example 9, hydrochloride]
assigned-label: 0.0

compound: Fc1ccc(C2=CCC(c3nnc4n3-c3ccc(Cl)cc3CNC4)CC2)cc1 (racemic) [Example 6, hydrochloride]
assigned-label: 0.0

compound: CC(C)(C)OC(=O)N1Cc2cc(Cl)ccc2-n2c(nnc2C2CC=C(c3ncccc3F)CC2)C1 (single isomer, unassigned; (+)) [Example 29]
assigned-label: 1.0

compound: CC(C)(C)OC(=O)N1Cc2cc(Cl)ccc2-n2c(nnc2C2CC=C(c3cccc4ccccc34)CC2)C1 (racemic)
assigned-label: 1.0

compound: N#Cc1cccc(C2=CCC(c3nnc4n3-c3ccc(Cl)cc3CNC4)CC2)c1 (racemic) [Example 21, hydrochloride]
assigned-label: 0.0

compound: Fc1ccnc(C2=CCC(c3nnc4n3-c3ccc(Cl)cc3CNC4)CC2)c1 (racemic)
assigned-label: 0.0

compound: Fc1cccnc1C1=CCC(c2nnc3n2-c2ccc(Cl)cc2CNC3)CC1 (single isomer, unassigned; (-)) [Example 30]
assigned-label: 0.0

compound: Cc1nc(C2=CCC(c3nnc4n3-c3ccc(Cl)cc3CN(C)C4)CC2)cs1 (racemic)
assigned-label: 1.0

compound: CN1Cc2cc(Cl)ccc2-n2c(nnc2C2CC=C(c3ncccc3F)CC2)C1 (single isomer, unassigned; (-)) [Example 31]
assigned-label: 1.0

compound: Clc1ccc2c(c1)CNCc1nnc(C3CC=C(c4cccc5ccccc45)CC3)n1-2 (racemic) [Example 15, hydrochloride]
assigned-label: 0.0

compound: CN1Cc2cc(Cl)ccc2-n2c(nnc2C2CC=C(c3cccc4ccccc34)CC2)C1 (racemic)
assigned-label: 1.0

----------
- assayed-system: human V1a receptor (Homo sapiens, UniProt P37288)
- Construct: expressed in transfected cells; host or cells: HEK293 cells, transiently transfected; membranes
- measurement-notes: human V1a receptor binding studies (3H-Vasopressin SPA, membranes of transfected HEK293 cells)
- test-conditions: 3H-Vasopressin displacement, HEK293 cell membranes, SPA beads, 1 h at room temperature, Ki by Cheng-Prussoff from IC50, read-out: pKi (hV1a) (converted)
Counter-ions that a name gives are not always drawn.
Reported Ki values follow for various compounds

compound: CN1Cc2cc(Cl)ccc2-n2c(nnc2C2CC=C(c3cccc(OC(F)(F)F)c3)CC2)C1 (racemic)
Ki, nM: 58.9
//
compound: Cc1ccccc1C1=CCC(c2nnc3n2-c2ccc(Cl)cc2CNC3)CC1 (racemic) [Example 3, hydrochloride]
Ki, nM: 5.13
//
compound: Cc1nc(C2=CCC(c3nnc4n3-c3ccc(Cl)cc3CN(C(=O)OC(C)(C)C)C4)CC2)cs1 (racemic)
Ki, nM: 3.72
//
compound: CC(C)(C)OC(=O)N1Cc2cc(Cl)ccc2-n2c(nnc2C2CC=C(c3cccc(F)c3Cl)CC2)C1 (racemic)
Ki, nM: 8.13
//
compound: CN1Cc2cc(Cl)ccc2-n2c(nnc2C2CC=C(c3ncccc3F)CC2)C1 (single isomer, unassigned; (+)) [Example 33]
Ki, nM: 5.13
//
compound: CN1Cc2cc(Cl)ccc2-n2c(nnc2C2CC=C(c3ccccn3)CC2)C1 (single isomer, unassigned; (-)) [Example 23]
Ki, nM: 7.59
//
compound: CC(C)(C)OC(=O)N1Cc2cc(Cl)ccc2-n2c(nnc2C2CC=C(c3ncccc3F)CC2)C1 (single isomer, unassigned; (-)) [Example 28]
Ki, nM: 1.91
